MEASURED_TARGET: Fibroblast growth factor 10 (Homo sapiens) (UniProt O15520)
Sequence (O15520 whole entry, looked up): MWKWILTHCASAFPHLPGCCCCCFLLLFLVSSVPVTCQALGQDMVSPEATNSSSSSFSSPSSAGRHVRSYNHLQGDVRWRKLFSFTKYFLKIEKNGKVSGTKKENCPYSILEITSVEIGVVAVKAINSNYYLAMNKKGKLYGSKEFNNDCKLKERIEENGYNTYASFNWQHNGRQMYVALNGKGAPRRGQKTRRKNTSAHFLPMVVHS
RUN_DESCRIPTION: FGF10 binders on small-molecule microarrays, primary screen, biochemical, small-molecule microarray, 635 nm fluorescence (AID 1102)
EXPERIMENTAL_SETUP: FGF10 binding, fluorescence 635 nm, higher = more signal
Label criterion met when composite z-score is at or above 0.4; otherwise label criterion not met.

# example entries with known answers
{"COMPOUND": "COC(=O)[C@@]1(Cc2ccccc2)[C@@H]2[C@@H](CC(=O)[C@H]2CC(=O)C(=O)N(C)C)CN1C(=O)c1ccccc1", "MEASURED_TARGET": "Fibroblast growth factor 10 (Homo sapiens) (UniProt O15520)", "GROUP_LABEL": "criterion not met"}
{"COMPOUND": "COCCOC(=O)N1C(=O)[C@@]2(c3cc(C#CCC(C(=O)OC)C(=O)OC)ccc31)[C@H](C(N)=O)[C@H]1C(=O)O[C@H](c3ccccc3)[C@H](c3ccccc3)N1[C@@H]2c1ccc(OCCO)cc1", "MEASURED_TARGET": "Fibroblast growth factor 10 (Homo sapiens) (UniProt O15520)", "GROUP_LABEL": "criterion met"}
{"COMPOUND": "COCCOC(=O)N1C(=O)[C@@]2(c3cc(C#CC4(O)CCCCCC4)ccc31)[C@H](c1ccccc1OCCO)N1[C@H](c3ccccc3)[C@H](c3ccccc3)OC(=O)[C@H]1[C@@H]2C(=O)N1CCCCCCC1", "MEASURED_TARGET": "Fibroblast growth factor 10 (Homo sapiens) (UniProt O15520)", "GROUP_LABEL": "criterion met"}
{"COMPOUND": "CC(C)C[C@@H]1NC(=O)[C@H]2C[C@@H](C(=O)NCCCCCCNC(=O)CS)[C@@H](c3ccc(O)cc3)N2C1=O", "MEASURED_TARGET": "Fibroblast growth factor 10 (Homo sapiens) (UniProt O15520)", "GROUP_LABEL": "criterion met"}
{"COMPOUND": "COCCOC(=O)N1C(=O)[C@@]2(c3cc(C#CCNC(N)=O)ccc31)[C@H](C(=O)NC[C@H](O)c1ccccc1)[C@H]1C(=O)O[C@H](c3ccccc3)[C@H](c3ccccc3)N1[C@@H]2c1ccc(OCCO)cc1", "MEASURED_TARGET": "Fibroblast growth factor 10 (Homo sapiens) (UniProt O15520)", "GROUP_LABEL": "criterion met"}

Lookup: Hello, I need to know if NC(=O)NCC#Cc1ccc2c(c1)[C@]1(C(=O)N2)[C@H](C(=O)Nc2nc3ccccc3s2)[C@H]2C(=O)O[C@H](c3ccccc3)[C@H](c3ccccc3)N2[C@@H]1c1ccc(OCCO)cc1 has measured composite z-score not below 0.4. Thanks!
Found: criterion not met

Lookup: Hello, I need to know if C=C(COC)/C(=C/C[C@@H](OC(C)=O)c1ccccc1OCCO)c1cc(C(=O)OC)ccc1OC has measured composite z-score not below 0.4. Thanks!
Found: criterion met

Lookup: Hello, I need to know if COC(=O)[C@@]1(Cc2ccc(OC)cc2)[C@H]2c3cc(C(=O)N(C)C)n(Cc4ccsc4Br)c3C[C@H]2CN1C(=O)c1ccccc1 has measured composite z-score not below 0.4. Thanks!
Found: criterion not met

Lookup: Hello, I need to know if C=C(CCCC)/C(=C/C[C@H](OC(C)=O)c1cccc(OCCO)c1)c1cc(C(=O)OC)ccc1OC has measured composite z-score not below 0.4. Thanks!
Found: criterion not met

Lookup: Hello, I need to know if CN(C)CCCC[C@@H]1NC(=O)[C@H]2C[C@@H](C(=O)NCc3ccc(F)cc3)[C@@H](c3ccc(O)cc3)N2C1=O has measured composite z-score not below 0.4. Thanks!
Found: criterion met

Lookup: Hello, I need to know if C=C(/C(=C/C[C@@H](OC(C)=O)c1ccccc1OCCO)c1cc(C(=O)OC)ccc1OC)C(C)C has measured composite z-score not below 0.4. Thanks!
Found: criterion met

Lookup: Hello, I need to know if CCOC(=O)C1=CC[C@@H](c2ccccc2)N(S(=O)(=O)C[Si](C)(C)C)[C@H]1c1ccccc1 has measured composite z-score not below 0.4. Thanks!
Found: criterion met

Lookup: Hello, I need to know if CC(C)C[C@H]1NC(=O)[C@@]23C(=O)N[C@@H](Cc4ccccc4)C2[C@H](C)[C@@]2(C)O[C@H]2C3/C=C/C/C=C\CNC(=O)[C@@H]2CCCN2C1=O (stereo partly drawn) has measured composite z-score not below 0.4. Thanks!
Found: criterion met
